# target_system: T1, IL-9-His recombinant protein (UniProt P15248 19-144)
# T1 construct: range 19-144; used as coating antigen in the ELISAs; also called IL9 (19-144)-His; not shown: His tag, C-terminal by the vector name
# T1 sequence (P15248 19-144 limits assumed, form in doubt): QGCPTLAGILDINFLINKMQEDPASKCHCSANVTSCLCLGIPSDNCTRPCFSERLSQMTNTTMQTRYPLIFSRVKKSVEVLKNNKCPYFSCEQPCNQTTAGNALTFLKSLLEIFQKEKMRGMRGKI
# protocol_text: ELISA on coated IL-9-His, OD450; unit taken from the x axis, the table prints none
quantity_name: EC50 (µg/mL)

>>> readout_value("38-D8-C7-G9 chimeric antibody (CA1) (antibody, V domains shown, also called CA1 antibody; human-mouse chimeric antibody CA1) VH: EVQLKQSGAELMKPGASVKLSCKATGYTFTGYWIEWVKLRPGHGLEWIGEILPGSGSTNYNEEFKGKATFTADTSSNTAYMQLNSLTTEDSAIYYCARRTYYYGIPEDYWGQGTSVTVSS VL: DIVMTQSQKFMSTSVGDRVSVTCKASQNVGTNVAWHQQKPGQSPKPLIYSASYRYSGVPDRFTGSGSGTDFTLTISNVQSEDLAEYFCQQYNSYPLTFGAGTKLELK")
0.022
>>> readout_value("7F3com (antibody, V domains shown, also called IL-9 positive control antibody; IL-9 positive antibody) VH: QVQLVQSGAEVKKPGSSVKVSCKASGGTFSYYWIEWVRQAPGQGLEWMGEILPGSGTTNPNEKFKGRVTITADESTSTAYMELSSLRSEDTAVYYCARADYYGSDYVKFDYWGQGTLVTVSS VL: DIQMTQSPSSLSASVGDRVTITCKASQHVITHVTWYQQKPGKAPKLLIYGTSYSYSGVPSRFSGSGSGTDFTLTISSLQPEDFATYYCQQFYEYPLTFGGGTKVEIK")
0.0459
>>> readout_value("humanized antibody VH1-VL4 (hu.CA2) (antibody, V domains shown, IgG1 / kappa by the vectors pcDNA3.4-IgG1 and pcDNA3.4-IgKc; also called humanized VH1-VL4 antibody) VH: EVQLKQSGAEVMKPGASVKVSCKATGYTFTGYWIEWVRLAPGHGLEWMGEILPGSGSTNYNQKFQGRVTFTADTSINTAYMELSRLRSDDTAIYYCARRTYYYGIPEDYWGQGTLVTVSS VL: DIVMTQSPKFLSASVGDRVTITCKASQNVGTNVAWHQQKPGQSPKPLIYSASYRYSGVPSRFTGSGSGTDFTLTISNLQPEDFAEYFCQQYNSYPLTFGAGTKLEIK")
0.0127
